Cited source for all entries: ChEMBL document CHEMBL3988442

- measurementTarget: AMP-activated protein kinase, AMPK (Homo sapiens) (UniProt P54646+O43741+P54619+Q9UGJ0+Q9Y478+Q13131+Q9UGI9)
- experimentSummary: AMP-dependent Kinase enzyme assay. An in vitro enzyme assay that detects ADP turnover that is directly proportional to AMPK activity. This uses naive AMPK that is activated during the assay with MK-8722
- Format: functional
- Design: scale not given: direction of the effect not stated beside the values
- conditionNotes: 30 µM
Answer each item with its documented Percent Effect.
Numeric only. Scale: %

// query Field request: Percent Effect | item: COc1cc(NC(=O)Cn2ccc3sc(C)cc3c2=O)cc(OC)c1
// result 8.38

// query Field request: Percent Effect | item: Cn1ncc2c1C(COCC1CC1)CN(Cc1nccs1)C2 (stereo unspecified)
// result -6.52

// query Field request: Percent Effect | item: CC(C(=O)N1CCCN(c2ncccc2C#N)CC1)n1ccnc1 (stereo unspecified)
// result 0.0866

// query Field request: Percent Effect | item: Cc1cccc(C2(NC(=O)CCN3C(=O)CCC3=O)CCCC2)c1
// result -1.51

// query Field request: Percent Effect | item: Cc1ncc(CNC(=O)N(C)C2CCN(c3ccccc3)C2=O)s1 (stereo unspecified)
// result 1.78

// query Field request: Percent Effect | item: CN(C)S(=O)(=O)N1C[C@@H]2CC[C@H](C1)N(Cc1ccc3nsnc3c1)C2
// result -22.2

// query Field request: Percent Effect | item: Cn1cc(C(=O)NC2CCN(C(=O)NCC3CCSCC3)CC2)cn1
// result 11.5

// query Field request: Percent Effect | item: Cc1ncc(CNC(=O)Cc2ccc(Cl)cc2)c(C2CCCN2C)n1 (stereo unspecified)
// result 18.1

// query Field request: Percent Effect | item: O=C(O)c1nnn(-c2ccc(OC(F)(F)F)cc2)c1-c1ccncc1
// result -1.66

// query Field request: Percent Effect | item: O=C(c1ccoc1)N1CC[C@@H]2[C@H]1CCC(=O)N2c1ccccc1
// result 10.1

// query Field request: Percent Effect | item: O=C(O)C(c1ccc2c(c1)OCO2)N1CCC(C(=O)N2CCCC2)CC1 (stereo unspecified)
// result -3.95

// query Field request: Percent Effect | item: CCS(=O)(=O)NCCNC(=O)c1cc(Cl)c2c(c1)OCCCO2
// result -7.22

// query Field request: Percent Effect | item: COc1cccc(COCC(=O)N2CCN(CC(C)(C)O)CC2)c1
// result 7.35

// query Field request: Percent Effect | item: Cc1cnc(CN2CCC(N(C)Cc3nnc(C4CC4)n3C)C2)cn1 (stereo unspecified)
// result 1.39

// query Field request: Percent Effect | item: COc1ccc(CCC(=O)Nc2cccnc2N2CCCC2)cc1Br
// result -7.1

// query Field request: Percent Effect | item: CC(CN1CCOCC1)NC(=O)NCc1ccc(Cl)s1 (stereo unspecified)
// result 7.25

// query Field request: Percent Effect | item: CNC(=O)N1CCc2cc(C(=O)N(C)C)c(NCC3CC3)nc2CC1
// result -2.71

// query Field request: Percent Effect | item: CCc1nc(CN2CCCN(C(=O)C(C)n3cncn3)CC2)cs1 (stereo unspecified)
// result -3.41

// query Field request: Percent Effect | item: COc1ccc(C)cc1CN1CCCC1Cn1nc(C)nc1C (stereo unspecified)
// result -7.49

// query Field request: Percent Effect | item: O=C(NCCCN1CCCCC1)c1ccc(-n2ccc3ccccc32)s1
// result -0.0111

// query Field request: Percent Effect | item: O=C(Cc1noc2ccccc12)N1CCCC1c1noc(C2CC2)n1 (stereo unspecified)
// result -6.79

// query Field request: Percent Effect | item: Cc1csc([C@@H]2C[C@@H]3CCN(Cc4cnn(C)c4)C[C@H]3O2)n1
// result -0.433

// query Field request: Percent Effect | item: CC(C)(C)c1ncc2c(n1)CN(C(=O)c1ccc(-c3nc[nH]n3)cc1)C2
// result -3.06

// query Field request: Percent Effect | item: CCc1cccc(N2CCC(NC(=O)c3cc[nH]n3)CC2)c1
// result 8.15

// query Field request: Percent Effect | item: CC(C(=O)N1CCCN(c2ccc(C#N)cc2)CC1)n1ccnc1 (stereo unspecified)
// result -5.83

// query Field request: Percent Effect | item: O=C1CCCCN1c1cccc(CNC2CCCC2)c1
// result 5.47

// query Field request: Percent Effect | item: Cc1cc(CN2CCN(CCOc3cccc(C#N)c3)CC2)no1
// result -0.384

// query Field request: Percent Effect | item: CCC(OC)C(=O)N1CCc2nc(NC)nc(C(=O)N3CCCC3)c2C1 (stereo unspecified)
// result -1.95

// query Field request: Percent Effect | item: CCCc1nc(C(=O)N2CCCn3nc(CCC(=O)O)cc3C2)cs1
// result 2.34

// query Field request: Percent Effect | item: O=S(=O)(c1cccs1)N1CCCn2cnc(CN3CCCC3)c2C1
// result -0.197

// query Field request: Percent Effect | item: Cc1cc(C)c2cc(CNCc3ccccc3)c3nn(C)c(=O)n3c2c1
// result -1.18

// query Field request: Percent Effect | item: COCCO[C@H]1CCN(C(=O)c2ccno2)[C@H]1Cc1cnn(C)c1
// result -2.17

// query Field request: Percent Effect | item: O=C(CCCc1nnc(-c2ccccc2)o1)N1CCN(CCO)CC1
// result -13.1

// query Field request: Percent Effect | item: CCc1cnc2c(c1NCc1ccncc1)c(=O)n(C)c(=O)n2C
// result -0.992

// query Field request: Percent Effect | item: Cc1ccc(C(=O)N2C[C@@H]3OCCN(CCN4CCCC4)[C@@H]3C2)cn1
// result 0.326

// query Field request: Percent Effect | item: Cc1cc(C2CCCN2CCCc2nc3ccccc3o2)on1 (stereo unspecified)
// result -3.23

// query Field request: Percent Effect | item: NCC(=O)N1CCCC(c2cncc(Nc3ncccn3)n2)C1 (stereo unspecified)
// result 17.7

// query Field request: Percent Effect | item: Cc1cnn(CC2CN(CC(=O)Nc3nnc(C)s3)CCO2)c1 (stereo unspecified)
// result 0.773

// query Field request: Percent Effect | item: Cc1ccc(C(=O)NS(=O)(=O)c2cccc3cnccc23)c(=O)[nH]1
// result -0.0909

// query Field request: Percent Effect | item: O=C(Nc1cc(F)ccc1OCC1CCCO1)c1ccccn1 (stereo unspecified)
// result 23.7

// query Field request: Percent Effect | item: CS(=O)(=O)NCc1cnc2n1CCN(Cc1ccsc1)CC2
// result -6.69

// query Field request: Percent Effect | item: Cc1c[nH]c(CN(C)C(=O)C2CC(=O)N(Cc3ccncc3)C2)n1 (stereo unspecified)
// result -2.63

// query Field request: Percent Effect | item: O=C(NCCN1CCOCC1)NCC(O)c1cccc(F)c1 (stereo unspecified)
// result -10.5

// query Field request: Percent Effect | item: COc1cc(C(=O)NS(=O)(=O)c2cccc(C#N)c2)cc(Cl)c1OC
// result 2.84

// query Field request: Percent Effect | item: O=C(C1SCCc2sccc21)N1CCC(O)CC1 (stereo unspecified)
// result 2.06

// query Field request: Percent Effect | item: COc1cccc(F)c1C(=O)N1C[C@@H](CN(C)CCO)[C@@H](CO)C1
// result -2.26
